Cited source for all entries: paper PMC5622079

- measured.target: UniProt Q9P2J5
- Sequence (Q9P2J5 whole entry): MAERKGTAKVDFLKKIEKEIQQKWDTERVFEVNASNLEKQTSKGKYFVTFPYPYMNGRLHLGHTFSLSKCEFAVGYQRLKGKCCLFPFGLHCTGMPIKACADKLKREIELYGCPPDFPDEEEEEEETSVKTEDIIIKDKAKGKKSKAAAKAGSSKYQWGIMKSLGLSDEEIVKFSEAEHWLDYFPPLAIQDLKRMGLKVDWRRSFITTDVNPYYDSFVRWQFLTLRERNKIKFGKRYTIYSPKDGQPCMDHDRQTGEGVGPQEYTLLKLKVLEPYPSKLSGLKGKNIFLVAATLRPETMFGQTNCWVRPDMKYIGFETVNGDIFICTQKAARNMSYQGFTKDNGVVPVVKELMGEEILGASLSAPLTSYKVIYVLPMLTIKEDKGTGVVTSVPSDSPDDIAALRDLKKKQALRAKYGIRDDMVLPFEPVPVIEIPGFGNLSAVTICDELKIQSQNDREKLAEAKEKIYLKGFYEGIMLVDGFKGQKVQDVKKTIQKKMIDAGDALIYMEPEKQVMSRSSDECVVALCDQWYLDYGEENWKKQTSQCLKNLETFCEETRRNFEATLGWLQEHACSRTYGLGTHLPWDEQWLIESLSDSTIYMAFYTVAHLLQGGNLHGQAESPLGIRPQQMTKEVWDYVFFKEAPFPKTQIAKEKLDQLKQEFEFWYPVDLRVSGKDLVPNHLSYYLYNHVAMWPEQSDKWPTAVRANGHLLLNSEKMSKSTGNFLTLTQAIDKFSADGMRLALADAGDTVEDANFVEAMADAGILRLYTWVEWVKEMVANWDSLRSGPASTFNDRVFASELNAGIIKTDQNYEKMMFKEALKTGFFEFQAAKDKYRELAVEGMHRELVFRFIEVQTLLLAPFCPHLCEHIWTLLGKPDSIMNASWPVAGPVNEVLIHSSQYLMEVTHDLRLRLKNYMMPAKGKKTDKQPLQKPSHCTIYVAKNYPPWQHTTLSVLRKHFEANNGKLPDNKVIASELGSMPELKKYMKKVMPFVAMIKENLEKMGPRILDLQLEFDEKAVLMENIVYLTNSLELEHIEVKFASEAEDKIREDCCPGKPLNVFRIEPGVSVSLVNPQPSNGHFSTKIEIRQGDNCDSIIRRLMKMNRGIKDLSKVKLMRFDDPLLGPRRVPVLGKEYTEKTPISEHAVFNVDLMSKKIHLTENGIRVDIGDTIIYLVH
observable: pKd
On this scale, pKd is minus log10 of a concentration expressed in M (mol/L).

Lookup: Read off the recorded pKd for "Cc1c(C(C)C)c(=O)n(-c2ccc(S(=O)(=O)NCCOc3ccccc3)cc2)n1C"
Found: 7.38
